# System: NCI-H1792
# Method Summary: relative viability (nuclei count vs DMSO), 5 days (fraction); higher = more cells survive
# Condition Summary: first compound 2 µM
Measured Property: relative viability
Reply briefly: the number, and no unit.

Requested read-out: relative viability. Entry: Cc1csc(=NC2CCCCC2)n1/N=C/c1ccc(O)c(O)c1O [MIM1] + CC(=O)Nc1cccc(-n2c(=O)n(C3CC3)c(=O)c3c(Nc4ccc(I)cc4F)n(C)c(=O)c(C)c32)c1 [Trametinib] (partner 0.02 µM)
0.456

Requested read-out: relative viability. Entry: Cc1csc(=NC2CCCCC2)n1/N=C/c1ccc(O)c(O)c1O [MIM1] + CCNC(=O)c1noc(-c2cc(C(C)C)c(O)cc2O)c1-c1ccc(CN2CCOCC2)cc1 [Luminespib] (partner 0.01 µM)
0.5

Requested read-out: relative viability. Entry: Cc1csc(=NC2CCCCC2)n1/N=C/c1ccc(O)c(O)c1O [MIM1] + Cc1nc(Nc2ncc(C(=O)Nc3c(C)cccc3Cl)s2)cc(N2CCN(CCO)CC2)n1 [Dasatinib] (partner 0.075 µM)
0.716

Requested read-out: relative viability. Entry: CN1CCN(CCOc2cc(OC3CCOCC3)c3c(Nc4c(Cl)ccc5c4OCO5)ncnc3c2)CC1 [Saracatinib] + Cc1nc(Nc2ncc(C(=O)Nc3c(C)cccc3Cl)s2)cc(N2CCN(CCO)CC2)n1 [Dasatinib] (partner 0.075 µM)
0.711

Requested read-out: relative viability. Entry: Cc1csc(=NC2CCCCC2)n1/N=C/c1ccc(O)c(O)c1O [MIM1] + Nc1ncn([C@H]2C[C@H](O)[C@@H](CO)O2)c(=O)n1 [Decitabine] (partner 2 µM)
0.611

Requested read-out: relative viability. Entry: Cc1csc(=NC2CCCCC2)n1/N=C/c1ccc(O)c(O)c1O [MIM1] + C[C@]1(O)C[C@@H](c2nc(-c3ccc4ccc(-c5ccccc5)nc4c3)c3c(N)nccn32)C1 [Linsitinib] (partner 1 µM)
0.481

Requested read-out: relative viability. Entry: Cc1csc(=NC2CCCCC2)n1/N=C/c1ccc(O)c(O)c1O [MIM1] + C[C@@H](Oc1cc(-c2cnn(C3CCNCC3)c2)cnc1N)c1c(Cl)ccc(F)c1Cl [Crizotinib] (partner 1 µM)
1.02

Requested read-out: relative viability. Entry: Cc1csc(=NC2CCCCC2)n1/N=C/c1ccc(O)c(O)c1O [MIM1] + Cc1nc(NC(=O)N2CCC[C@H]2C(N)=O)sc1-c1ccnc(C(C)(C)C(F)(F)F)c1 [Alpelisib] (partner 2 µM)
0.694

Requested read-out: relative viability. Entry: CN1CCN(CCOc2cc(OC3CCOCC3)c3c(Nc4c(Cl)ccc5c4OCO5)ncnc3c2)CC1 [Saracatinib] + O=C(c1cc(Cc2n[nH]c(=O)c3ccccc23)ccc1F)N1CCN(C(=O)C2CC2)CC1 [Olaparib] (partner 8 µM)
0.385

* * *

# Tested on: NCI-H1993
# Method Summary: relative viability (nuclei count vs DMSO), 5 days (fraction); higher = more cells survive
# Condition Summary: first compound 0.02 µM
Measured Property: relative viability

- CN1CCN(CCOc2cc(OC3CCOCC3)c3c(Nc4c(Cl)ccc5c4OCO5)ncnc3c2)CC1 [Saracatinib] + CCNC(=O)c1noc(-c2cc(C(C)C)c(O)cc2O)c1-c1ccc(CN2CCOCC2)cc1 [Luminespib] (partner 0.01 µM): 0.907
- CCNC(=O)c1noc(-c2cc(C(C)C)c(O)cc2O)c1-c1ccc(CN2CCOCC2)cc1 [Luminespib] + CC(C)C[C@H](NC(=O)[C@H](Cc1ccccc1)NC(=O)c1cnccn1)B(O)O [Bortezomib] (partner 0.002 µM): 0.68
- CN1CCN(CCOc2cc(OC3CCOCC3)c3c(Nc4c(Cl)ccc5c4OCO5)ncnc3c2)CC1 [Saracatinib] + C[C@]1(O)C[C@@H](c2nc(-c3ccc4ccc(-c5ccccc5)nc4c3)c3c(N)nccn32)C1 [Linsitinib] (partner 1 µM): 0.682

Requested read-out: relative viability. Entry: CN1CCN(CCOc2cc(OC3CCOCC3)c3c(Nc4c(Cl)ccc5c4OCO5)ncnc3c2)CC1 [Saracatinib] + O=C(CCCCCCC(=O)Nc1ccccc1)NO [Vorinostat] (partner 1 µM)
0.806

* * *

# relative viability annotations
# Test system: NCI-H1944
# Method Summary: relative viability (nuclei count vs DMSO), 5 days (fraction); higher = more cells survive
# Condition Summary: first compound 2 µM

Some solved cases for reference:
• CN1CCN(CCOc2cc(OC3CCOCC3)c3c(Nc4c(Cl)ccc5c4OCO5)ncnc3c2)CC1 [Saracatinib] + C[C@]1(O)C[C@@H](c2nc(-c3ccc4ccc(-c5ccccc5)nc4c3)c3c(N)nccn32)C1 [Linsitinib] (partner 1 µM) = 0.704
• CN1CCN(CCOc2cc(OC3CCOCC3)c3c(Nc4c(Cl)ccc5c4OCO5)ncnc3c2)CC1 [Saracatinib] + O=C(c1cc(Cc2n[nH]c(=O)c3ccccc23)ccc1F)N1CCN(C(=O)C2CC2)CC1 [Olaparib] (partner 8 µM) = 0.358
• Cc1csc(=NC2CCCCC2)n1/N=C/c1ccc(O)c(O)c1O [MIM1] + O=C(c1cc(Cc2n[nH]c(=O)c3ccccc23)ccc1F)N1CCN(C(=O)C2CC2)CC1 [Olaparib] (partner 8 µM) = 0.352

Look up relative viability with NCI-H1944 for this compound: Cc1csc(=NC2CCCCC2)n1/N=C/c1ccc(O)c(O)c1O [MIM1] + Cc1nc(NC(=O)N2CCC[C@H]2C(N)=O)sc1-c1ccnc(C(C)(C)C(F)(F)F)c1 [Alpelisib] (partner 2 µM)
0.671

Look up relative viability with NCI-H1944 for this compound: CN1CCN(CCOc2cc(OC3CCOCC3)c3c(Nc4c(Cl)ccc5c4OCO5)ncnc3c2)CC1 [Saracatinib] + COc1cc2c(Oc3ccc(NC(=O)C4(C(=O)Nc5ccc(F)cc5)CC4)cc3F)ccnc2cc1OCCCN1CCOCC1 [Foretinib] (partner 0.25 µM)
0.549

Look up relative viability with NCI-H1944 for this compound: CN1CCN(CCOc2cc(OC3CCOCC3)c3c(Nc4c(Cl)ccc5c4OCO5)ncnc3c2)CC1 [Saracatinib] + CS(=O)(=O)CCNCc1ccc(-c2ccc3ncnc(Nc4ccc(OCc5cccc(F)c5)c(Cl)c4)c3c2)o1 [Lapatinib] (partner 2 µM)
0.459

Look up relative viability with NCI-H1944 for this compound: CN1CCN(CCOc2cc(OC3CCOCC3)c3c(Nc4c(Cl)ccc5c4OCO5)ncnc3c2)CC1 [Saracatinib] + COc1cccc2cc(-c3nc([C@H]4CC[C@H](C(=O)O)CC4)n4ncnc(N)c34)[nH]c12 [OSI-027] (partner 0.5 µM)
0.274

Look up relative viability with NCI-H1944 for this compound: Cc1csc(=NC2CCCCC2)n1/N=C/c1ccc(O)c(O)c1O [MIM1] + CC(=O)c1c(C)c2cnc(Nc3ccc(N4CCNCC4)cn3)nc2n(C2CCCC2)c1=O [Palbociclib] (partner 0.5 µM)
0.248

Look up relative viability with NCI-H1944 for this compound: Cc1csc(=NC2CCCCC2)n1/N=C/c1ccc(O)c(O)c1O [MIM1] + NC(=O)Nc1cc(-c2cccc(F)c2)sc1C(=O)N[C@H]1CCCNC1 [AZD7762] (partner 0.2 µM)
0.475

* * *

# relative viability annotations
# Test system: NCI-H1666
# Method Summary: relative viability (nuclei count vs DMSO), 5 days (fraction); higher = more cells survive
# Condition Summary: first compound 0.001 µM
Reply briefly: the number, and no unit.

Requested read-out: relative viability. Entry: Cc1cn(-c2cc(NC(=O)c3ccc(C)c(Nc4nccc(-c5cccnc5)n4)c3)cc(C(F)(F)F)c2)cn1 [Nilotinib] + C[C@]1(O)C[C@@H](c2nc(-c3ccc4ccc(-c5ccccc5)nc4c3)c3c(N)nccn32)C1 [Linsitinib] (partner 1 µM)
0.854

Requested read-out: relative viability. Entry: Cc1cn(-c2cc(NC(=O)c3ccc(C)c(Nc4nccc(-c5cccnc5)n4)c3)cc(C(F)(F)F)c2)cn1 [Nilotinib] + CC(=O)Nc1cccc(-n2c(=O)n(C3CC3)c(=O)c3c(Nc4ccc(I)cc4F)n(C)c(=O)c(C)c32)c1 [Trametinib] (partner 0.02 µM)
0.843

Requested read-out: relative viability. Entry: Cc1cn(-c2cc(NC(=O)c3ccc(C)c(Nc4nccc(-c5cccnc5)n4)c3)cc(C(F)(F)F)c2)cn1 [Nilotinib] + O=C(CCCCCCC(=O)Nc1ccccc1)NO [Vorinostat] (partner 1 µM)
0.942

* * *

# Test system: NCI-H1734
# Method Summary: relative viability (nuclei count vs DMSO), 5 days (fraction); higher = more cells survive
# Condition Summary: first compound 2 µM
# relative viability annotations
Reply briefly: the number, and no unit.

Look up relative viability with NCI-H1734 for this compound: Cc1csc(=NC2CCCCC2)n1/N=C/c1ccc(O)c(O)c1O [MIM1] + COc1cccc2cc(-c3nc([C@H]4CC[C@H](C(=O)O)CC4)n4ncnc(N)c34)[nH]c12 [OSI-027] (partner 0.5 µM)
0.525

Look up relative viability with NCI-H1734 for this compound: Cc1csc(=NC2CCCCC2)n1/N=C/c1ccc(O)c(O)c1O [MIM1] + CS(=O)(=O)CCNCc1ccc(-c2ccc3ncnc(Nc4ccc(OCc5cccc(F)c5)c(Cl)c4)c3c2)o1 [Lapatinib] (partner 2 µM)
0.971

Look up relative viability with NCI-H1734 for this compound: Cc1csc(=NC2CCCCC2)n1/N=C/c1ccc(O)c(O)c1O [MIM1] + NC(=O)Nc1cc(-c2cccc(F)c2)sc1C(=O)N[C@H]1CCCNC1 [AZD7762] (partner 0.2 µM)
0.492

Look up relative viability with NCI-H1734 for this compound: Cc1csc(=NC2CCCCC2)n1/N=C/c1ccc(O)c(O)c1O [MIM1] + O=C(c1cc(Cc2n[nH]c(=O)c3ccccc23)ccc1F)N1CCN(C(=O)C2CC2)CC1 [Olaparib] (partner 8 µM)
0.559

Look up relative viability with NCI-H1734 for this compound: Cc1csc(=NC2CCCCC2)n1/N=C/c1ccc(O)c(O)c1O [MIM1] + CC(=O)c1c(C)c2cnc(Nc3ccc(N4CCNCC4)cn3)nc2n(C2CCCC2)c1=O [Palbociclib] (partner 0.5 µM)
0.34

Look up relative viability with NCI-H1734 for this compound: CN1CCN(CCOc2cc(OC3CCOCC3)c3c(Nc4c(Cl)ccc5c4OCO5)ncnc3c2)CC1 [Saracatinib] + C[C@]1(O)C[C@@H](c2nc(-c3ccc4ccc(-c5ccccc5)nc4c3)c3c(N)nccn32)C1 [Linsitinib] (partner 1 µM)
0.751
